# testedSystem: EeAChE (Electrophorus electricus, UniProt O42275)
# Sequence (O42275 24-633): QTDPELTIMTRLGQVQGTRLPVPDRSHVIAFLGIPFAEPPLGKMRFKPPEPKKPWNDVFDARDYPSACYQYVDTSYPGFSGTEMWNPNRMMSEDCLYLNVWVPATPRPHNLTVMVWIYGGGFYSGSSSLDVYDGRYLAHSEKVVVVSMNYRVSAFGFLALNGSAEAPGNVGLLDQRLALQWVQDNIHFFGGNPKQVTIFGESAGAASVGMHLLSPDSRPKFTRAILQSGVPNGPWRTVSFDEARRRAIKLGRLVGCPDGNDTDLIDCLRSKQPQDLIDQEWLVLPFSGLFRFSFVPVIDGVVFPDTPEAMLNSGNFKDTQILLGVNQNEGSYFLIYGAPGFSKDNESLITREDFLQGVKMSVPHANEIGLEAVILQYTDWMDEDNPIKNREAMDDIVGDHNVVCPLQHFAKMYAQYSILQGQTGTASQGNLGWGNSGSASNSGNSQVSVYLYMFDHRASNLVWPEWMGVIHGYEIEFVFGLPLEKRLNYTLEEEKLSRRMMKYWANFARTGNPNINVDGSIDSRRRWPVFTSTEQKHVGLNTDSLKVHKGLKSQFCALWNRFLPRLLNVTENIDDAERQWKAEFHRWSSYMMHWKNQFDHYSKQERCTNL
So basically: is IC50 under 1 µM? Then Yes. Not under? Then No.

compound	qualitativeLabel
Nc1c2c(nc3c1C(c1cccc(Cl)c1)c1oc(CO)cc(=O)c1O3)CCCC2 (stereo not drawn) [KT2j]	Yes
Nc1c2c(nc3c1C(c1ccccc1F)c1oc(CO)cc(=O)c1O3)CCCC2 (stereo not drawn) [KT2f]	No
Nc1c2c(nc3c1C(c1ccccc1Cl)c1oc(CO)cc(=O)c1O3)CCCC2 (stereo not drawn) [KT2i]	Yes
COc1ccccc1C1c2oc(CO)cc(=O)c2Oc2nc3c(c(N)c21)CCCC3 (stereo not drawn) [KT2c]	No

# TODO verify IC50 < 1 µM strictly for this compound: COc1ccc(C2c3oc(CO)cc(=O)c3Oc3nc4c(c(N)c32)CCCC4)cc1 (stereo not drawn) [KT2e]
No

Identify whether the compound COc1cccc(C2c3oc(CO)cc(=O)c3Oc3nc4c(c(N)c32)CCCC4)c1 (stereo not drawn) [KT2d] records IC50 below 1 µM.
Yes

----------
# methodNotes: in vitro
# Format: cell-based
# testParameters: human
metric: viability at 1 µM (%)
// return numeric value only (unit: %, not printed)

// Nc1c2c(nc3ccccc13)CCCC2 [Tacrine, tacrine, reference compound] : viability at 1 µM value = 112

----------
# testedSystem: eqBuChE (Equus caballus, UniProt P81908)
# Construct: serum horse BuChE (eqBuChE); from tissue; host or cells: horse serum
# Sequence (P81908 whole entry): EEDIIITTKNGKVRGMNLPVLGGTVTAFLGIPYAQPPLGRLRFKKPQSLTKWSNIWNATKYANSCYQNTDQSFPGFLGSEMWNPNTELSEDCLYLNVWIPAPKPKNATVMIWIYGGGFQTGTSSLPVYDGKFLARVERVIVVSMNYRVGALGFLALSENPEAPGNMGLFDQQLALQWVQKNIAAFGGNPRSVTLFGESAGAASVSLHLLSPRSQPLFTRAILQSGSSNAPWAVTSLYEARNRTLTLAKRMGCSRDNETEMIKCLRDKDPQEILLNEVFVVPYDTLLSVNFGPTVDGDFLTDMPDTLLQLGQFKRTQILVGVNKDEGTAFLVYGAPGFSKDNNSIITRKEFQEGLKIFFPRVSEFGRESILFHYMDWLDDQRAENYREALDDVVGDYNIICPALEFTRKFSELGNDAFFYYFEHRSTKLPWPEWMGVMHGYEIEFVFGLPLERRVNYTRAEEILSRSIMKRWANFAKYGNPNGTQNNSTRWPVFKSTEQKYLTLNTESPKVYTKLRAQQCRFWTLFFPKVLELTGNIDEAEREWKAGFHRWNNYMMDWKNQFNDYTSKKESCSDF
# methodNotes: biochemical
# testParameters: at 10 μM; Table 2 footnote b
Catalogue of compounds with associated inhibition at 10 µM

Consider the worked cases shown below.
compound	inhibition at 10 µM
Nc1c2c(nc3c1C(c1c(Cl)cccc1Cl)c1oc(CO)cc(=O)c1O3)CCCC2 (stereo not shown)	< 50%
COc1cccc(C2c3oc(CO)cc(=O)c3Oc3nc4c(c(N)c32)CCCC4)c1 (stereo not shown)	< 50%
Nc1c2c(nc3c1C(c1ccc(F)cc1)c1oc(CO)cc(=O)c1O3)CCCC2 (stereo not shown)	< 50%

Now consider a different compound.
inhibition at 10 µM in this record for COc1ccccc1C1c2oc(CO)cc(=O)c2Oc2nc3c(c(N)c21)CCCC3 (stereo not shown) : < 50%

----------
# methodNotes: in vitro
# Format: cell-based
# testParameters: human, HepG2 cells; 300 µM; percent of cell viability vs DMSO-treated control; read-out: HepG2 cell viability
# viability at 300 µM listing for each entry below
# output: bare number, implied unit %

As a guide, the following entries are already answered.
molecule	metric	quantitativeReadout
Nc1c2c(nc3c1C(c1ccc(F)cc1)c1oc(CO)cc(=O)c1O3)CCCC2 (stereo not drawn) [KT2h]	viability at 300 µM	87.2
Nc1c2c(nc3c1C(c1ccccc1F)c1oc(CO)cc(=O)c1O3)CCCC2 (stereo not drawn) [KT2f]	viability at 300 µM	95.3
COc1cccc(C2c3oc(CO)cc(=O)c3Oc3nc4c(c(N)c32)CCCC4)c1 (stereo not drawn) [KT2d]	viability at 300 µM	87.2
COc1ccc(C2c3oc(CO)cc(=O)c3Oc3nc4c(c(N)c32)CCCC4)cc1 (stereo not drawn) [KT2e]	viability at 300 µM	70.9

The molecule listed as Nc1c2c(nc3c1C(c1ccccc1Cl)c1oc(CO)cc(=O)c1O3)CCCC2 (stereo not drawn) [KT2i] shows viability at 300 µM equal to 64.4

Record Nc1c2c(nc3c1C(c1ccccc1)c1oc(CO)cc(=O)c1O3)CCCC2 (stereo not drawn) [KT2a] , field viability at 300 µM: 95

# viability at 300 µM of Nc1c2c(nc3c1C(c1cccc(Cl)c1)c1oc(CO)cc(=O)c1O3)CCCC2 (stereo not drawn) [KT2j] = 52.7

For this molecule ( Nc1c2c(nc3c1C(c1cccc(F)c1)c1oc(CO)cc(=O)c1O3)CCCC2 (stereo not drawn) [KT2g] ), measured viability at 300 µM is 90.5

viability at 300 µM measured on Nc1c2c(nc3c1C(c1c(Cl)cccc1Cl)c1oc(CO)cc(=O)c1O3)CCCC2 (stereo not drawn) [KT2l] = 68.3

----------
# methodNotes: in vitro
# Format: cell-based
# testParameters: human
metric: viability at 1000 µM (%)
Just the number please, in %, no unit attached.

Short answer for Nc1c2c(nc3ccccc13)CCCC2 [Tacrine, tacrine, reference compound] : viability at 1000 µM was 10.9

----------
# testedSystem: eqBuChE (Equus caballus, UniProt P81908)
# Construct: serum horse BuChE (eqBuChE)
# methodNotes: biochemical
# testParameters: mean ± SEM
metric: IC50 (µM)
The figure you give is taken to be in µM; do not add the unit.

compound	IC50, µM
Nc1c2c(nc3c1C(c1cccc(F)c1)c1oc(CO)cc(=O)c1O3)CCCC2 (stereo not drawn) [KT2g]	4.54
Nc1c2c(nc3c1C(c1cccc(Cl)c1)c1oc(CO)cc(=O)c1O3)CCCC2 (stereo not drawn) [KT2j]	4.19

# input for lookup
The measured IC50 associated with Nc1c2c(nc3c1C(c1ccccc1)c1oc(CO)cc(=O)c1O3)CCCC2 (stereo not drawn) [KT2a] reads 12.1

----------
Below, each entry is listed with its recorded viability at 1000 µM.
# methodNotes: in vitro
# Assay type: cell-based
# testParameters: human, HepG2 cells; 1000 µM; percent of cell viability vs DMSO-treated control; read-out: HepG2 cell viability
Kindly answer with a numeric value in %, unit omitted.

Recorded viability at 1000 µM, per entry:
compound	metric	quantitativeReadout
Nc1c2c(nc3c1C(c1ccccc1F)c1oc(CO)cc(=O)c1O3)CCCC2 (stereo not drawn) [KT2f]	viability at 1000 µM	64
Nc1c2c(nc3c1C(c1cccc(Cl)c1)c1oc(CO)cc(=O)c1O3)CCCC2 (stereo not drawn) [KT2j]	viability at 1000 µM	14.5
Nc1c2c(nc3c1C(c1ccccc1Cl)c1oc(CO)cc(=O)c1O3)CCCC2 (stereo not drawn) [KT2i]	viability at 1000 µM	23.1

Here is the next item to consider.
The value of viability at 1000 µM measured for the compound Nc1c2c(nc3c1C(c1c(Cl)cccc1Cl)c1oc(CO)cc(=O)c1O3)CCCC2 (stereo not drawn) [KT2l] turned out to be 50.5

----------
Listed here are compounds together with their documented log10(ORAC).
# methodNotes: Oxygen radical absorbance capacity assay (ORAC-FL)
# testParameters: ORAC-FL, Trolox equivalents
# values: log10(ORAC), units TE

Here's what some known entries look like.
compound	log10(ORAC)
Nc1c2c(nc3ccccc13)CCCC2 [Tacrine, tacrine, reference compound]	-0.70
Nc1c2c(nc3c1C(c1ccccc1F)c1oc(CO)cc(=O)c1O3)CCCC2 (centres unmarked)	0.59
Nc1c2c(nc3c1C(c1cccc(F)c1)c1oc(CO)cc(=O)c1O3)CCCC2 (centres unmarked)	0.64

log10(ORAC) reported for this compound Cc1ccc(C2c3oc(CO)cc(=O)c3Oc3nc4c(c(N)c32)CCCC4)cc1 (centres unmarked) : 0.47

compound COc1ccc(C2c3oc(CO)cc(=O)c3Oc3nc4c(c(N)c32)CCCC4)cc1 (centres unmarked) , log10(ORAC) observed: 0.65

----------
# methodNotes: in vitro
# Format: cell-based
# testParameters: human, HepG2 cells; 30 µM; percent of cell viability vs DMSO-treated control; read-out: HepG2 cell viability
# Procedure: The culture medium was refreshed after 24 h of incubation and 100 µl of six different concentrations (1–1000 µM) of test compounds or DMSO (0.1%) were then added. The cell viability was monitored by colourimetric assay with 3-[4,5-dimethylthiazol-2-yl]-2,5-diphenyl-tetrazolium bromide (MTT). In this sense, all new KTs were submitted to the in vitro cell viability test (MTT assay) using human hepatocellular carcinoma cell line (HepG2)[26], as the most accepted probe to evaluate hepatotoxic effects. […]
Each record here notes measured viability at 30 µM.
Number in %, nothing else.

compound	quantitativeReadout
Nc1c2c(nc3c1C(c1cccc(F)c1)c1oc(CO)cc(=O)c1O3)CCCC2 (stereo not drawn)	109
COc1ccccc1C1c2oc(CO)cc(=O)c2Oc2nc3c(c(N)c21)CCCC3 (stereo not drawn)	98.2
Nc1c2c(nc3c1C(c1cccc(Cl)c1)c1oc(CO)cc(=O)c1O3)CCCC2 (stereo not drawn)	99.6

Just so you know, measured viability at 30 µM for Nc1c2c(nc3c1C(c1ccc(F)cc1)c1oc(CO)cc(=O)c1O3)CCCC2 (stereo not drawn) came out at 101

Memo: Nc1c2c(nc3c1C(c1ccccc1F)c1oc(CO)cc(=O)c1O3)CCCC2 (stereo not drawn) , reported viability at 30 µM: 102

// COc1ccc(C2c3oc(CO)cc(=O)c3Oc3nc4c(c(N)c32)CCCC4)cc1 (stereo not drawn) : viability at 30 µM value = 98.3

According to the records, this compound Nc1c2c(nc3c1C(c1ccccc1Cl)c1oc(CO)cc(=O)c1O3)CCCC2 (stereo not drawn) displays viability at 30 µM of 105

# viability at 30 µM (compound: Nc1c2c(nc3c1C(c1cccc(Br)c1)c1oc(CO)cc(=O)c1O3)CCCC2 (stereo not drawn) ) is 95.8

// recorded viability at 30 µM for Nc1c2c(nc3c1C(c1c(Cl)cccc1Cl)c1oc(CO)cc(=O)c1O3)CCCC2 (stereo not drawn) : 99.9
